Give measured SPOT intensity for each item. Keep answers brief.
Biological target: T1, Bzz1-1, P38822
T1 sequence (P38822 478-572, looked up): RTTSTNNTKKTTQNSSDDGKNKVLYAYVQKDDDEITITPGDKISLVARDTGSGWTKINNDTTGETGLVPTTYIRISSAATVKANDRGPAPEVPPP
Assay: SPOT array
Conditions: median of control spots 4446
Reply with the value as a number alone.

What does the data say about its SPOT intensity? Entry: GRSRLFPHSPLGRSS
0

What does the data say about its SPOT intensity? Entry: QPWTDQFEKLEKEVS
5

What does the data say about its SPOT intensity? Entry: ISPPASPPPEFDFSK
0

What does the data say about its SPOT intensity? Entry: YRRKSIPFAPHQITA
0
